TESTED_TARGET: P450cam (Pseudomonas putida, UniProt P00183)
Sequence (P00183 whole entry): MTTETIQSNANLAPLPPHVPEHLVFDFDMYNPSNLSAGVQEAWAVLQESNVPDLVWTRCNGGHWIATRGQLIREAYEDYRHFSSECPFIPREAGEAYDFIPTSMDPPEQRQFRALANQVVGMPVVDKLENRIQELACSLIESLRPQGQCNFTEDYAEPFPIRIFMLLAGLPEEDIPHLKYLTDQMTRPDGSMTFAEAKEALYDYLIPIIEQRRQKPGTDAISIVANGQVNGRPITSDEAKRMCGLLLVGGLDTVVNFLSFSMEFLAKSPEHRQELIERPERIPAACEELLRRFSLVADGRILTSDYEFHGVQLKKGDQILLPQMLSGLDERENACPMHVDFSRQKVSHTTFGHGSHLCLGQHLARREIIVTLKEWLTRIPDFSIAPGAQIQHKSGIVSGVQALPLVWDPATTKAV
EXPERIMENT_SUMMARY: Steady-state substrate binding titrations
# Kd listing for each entry below

COMPOUND: O=C1C2CC3CC(C2)CC1C3 [2-adamantanone]
Kd (µM): 2.7
//
COMPOUND: O=C1CC2CC[C@H]1C2 [norcamphor]
Kd (µM): 250
//
COMPOUND: CC1(C)CC(=O)CC(C)(C)C1 [3,3,5,5-tetramethylcyclohexanone]
Kd (µM): 5

---

EXPERIMENT_SUMMARY: Solubility in H2O
Type: physicochemical
EXPERIMENTAL_SETUP: water

MOL_SMILES: O=C1CC2CC[C@H]1C2
solubility: ≥ 50000 µM
//
MOL_SMILES: CC1(C)CC(=O)CC(C)(C)C1
solubility: ≥ 2000 µM
//
MOL_SMILES: O=C1C2CC3CC(C2)CC1C3
solubility: ≥ 2000 µM

Ref: paper PMC8318206
